Entry source: paper PMC7982424

# experimental_protocol: Microsomal stability assay, mouse liver microsomes
# Type: in vitro ADME
# run_conditions: mouse, pH 7.4
outcome_measure: half-life at 1 μmol/L (min)
Express the result in min but write the number alone.

Reference set, count: 5
half-life at 1 μmol/L reading for CN(C(=O)[C@H](Cc1ccccc1)NC(=O)CNC(=O)c1ccccc1)c1ccccc1 [Compound 18] : 3.6

Per the records, this compound ( CN(C(=O)[C@H](Cc1ccccc1)NC(=O)CNC(=O)c1ccccc1)c1cccc(F)c1 [Compound 23] ) has half-life at 1 μmol/L equal to 3.6

In plain terms, Cc1cn(CC(=O)N[C@@H](Cc2ccccc2)C(=O)N(C)c2ccc(Cl)cc2)c(=O)[nH]c1=O [Compound 10] has a documented half-life at 1 μmol/L of 4.6

Lab book: half-life at 1 μmol/L of CN(C(=O)[C@H](Cc1ccccc1)NC(=O)CNC(=O)c1ccccc1)c1ccc(Cl)cc1 [Compound 20] noted as 13

// sample CCN(C(=O)[C@H](Cc1ccccc1)NC(=O)CNC(=O)c1ccccc1)c1ccccc1 [Compound 26] , its half-life at 1 μmol/L was 2.4

Next:
Notebook: Cc1ccc(N(C)C(=O)[C@H](Cc2ccccc2)NC(=O)CNC(=O)c2ccccc2)cc1 [Compound 19] , half-life at 1 μmol/L read as 5

----------
Reported inhibition at 2 µM values follow for various compounds
# System: HIV-1NL4-3
# experimental_protocol: Anti-HIV-1 assay in TZM-GFP cells
# Assay type: cell-based
# run_conditions: Human immunodeficiency virus 1, read-out: Inhibition at 2 μmol/L
Numbers only; they are read as %.

# example entries with known answers
CN(C(=O)[C@H](Cc1ccccc1)NC(=O)CNC(=O)c1ccccc1)c1cccc(Br)c1 [Compound 24] has a reported inhibition at 2 µM of 38

The compound listed as Cc1cn(CC(=O)N[C@@H](Cc2ccccc2)C(=O)N(C)c2cccc(Cl)c2)c(=O)[nH]c1=O [Compound 11] has a reported inhibition at 2 µM of 37

response.value for CN(C(=O)[C@H](Cc1ccccc1)NC(=O)CNC(=O)c1ccccc1)c1ccc(F)cc1 [Compound 22] (field: inhibition at 2 µM) = 12

---
// Cc1ccc(N(C)C(=O)[C@H](Cc2ccccc2)NC(=O)CC2NC(=O)NC2=O)cc1 (stereo partly shown) [Compound 3] : inhibition at 2 µM value = 2
